systemTested: GABA-A receptor; anion channel (Rattus norvegicus) (UniProt O09028+P15431+P18506+P18508+P19969+P20236+P23574+P23576+P28471+P28473+P30191+P62813+P63079+P63138+Q91ZM7+Q9ES14)
methodNotes: Ability to inhibit [35S]t-butyl-bicyclophosphorothionate binding by 50% to rat whole brain membrane
Type: tissue-based
measuredEndpoint: TBPS IC50 (µM)
Reply numerically in µM, unit not repeated.

// below: answered compounds
Prompt line: Recorded TBPS IC50 for CCC(C(=O)Oc1c(OC)cc(C)cc1OC)N(CCOC)CCOC (configuration not stated) , please?
Response line: 29.3

Prompt line: Queued: COc1cccc(OC)c1OC(=O)[C@H](C)N1CCc2ccccc2C1
Response line: 23.8

Next:
Prompt line: // query TBPS IC50 value for entry CCC[C@H](C(=O)Oc1c(OC)cccc1OC)N(CCOC)CCOC
Response line: 3.2

Prompt line: Try CCC(C(=O)Oc1c(OC)cccc1OC)N(CCOC)CCOC (configuration not stated) next.
Response line: 24.3

Prompt line: Also need COc1cccc(OC)c1OC(=O)C(c1ccccc1)N1CCOCC1 (configuration not stated) , thanks.
Response line: 66

Prompt line: What do we get for CC[C@H](C(=O)Oc1c(OC)cccc1OC)N(CCOC)CCOC ?
Response line: 7.4
